Source listed as PubChem BioAssay AID1549.

system_under_test: Influenza A virus M2 proton channel (A/TW/4845/1999 H1N1)
experiment_notes: M2 proton channel binding, NMR based, influenza A virus H1N1 strain (AID 1549)
test_conditions: NMR binding screen, M2 protein
Activity calls are given as the source filed them. The rule behind the calls is not given here.
measured_property: Kd

INSERT INTO assay_data (compound, observed_result) VALUES
  ('CN(C)c1nc(N)nc(Cn2ccnc2)n1', '> 4 mM (inactive)'),
  ('C/C(=C\CO)CC[C@H](C)CCC[C@H](C)CCCC(C)C', '> 4 mM (inactive)'),
  ('Cc1nc(NCc2ccco2)nc2c1C(=O)CC(C)C2 (configuration not stated)', '> 4 mM (inactive)'),
  ('O=C1C2CCCCC2C(=O)N1Cc1cccnc1 (configuration not stated)', '> 4 mM (inactive)'),
  ('Cc1c(/C=N\n2cnnc2)c2ccccc2n1C', '> 4 mM (inactive)'),
  ('CN1CCC(N(C)C2CCN(C)CC2)CC1', '> 4 mM (inactive)'),
  ('O=C1CN(C(=O)c2ccccc2)c2ccccc2N1', '> 4 mM (inactive)'),
  ('CCOC(=O)c1c(C)[nH]c2ccc(O)cc12', '> 4 mM (inactive)'),
  ('CS(=O)(=O)NC1CCN(Cc2ccccc2)CC1', '> 4 mM (inactive)'),
  ('CC(C)=CC(=O)Nc1ccc2c(c1)OCO2', '> 4 mM (inactive)'),
  ('CC(C)Nc1nc2n(c(=O)n1)CCN2C(C)C', '> 4 mM (inactive)'),
  ('NC(=O)c1cc(N)cc(C(N)=O)c1', '> 4 mM (inactive)'),
  ('Cc1cc(O)cc(=O)o1', '> 4 mM (inactive)'),
  ('CSc1ncc(CO)n1Cc1ccccc1', '> 4 mM (inactive)'),
  ('C=C[C@@]1(C)CC(=O)[C@@]2(O)[C@](C)(O1)[C@@H](OC(C)=O)[C@@H](O)C1C(C)(C)CC[C@H](O)[C@@]12C (some centres not stated)', '> 4 mM (inactive)'),
  ('O=C(NCN1CCOCC1)c1cccnc1', '> 4 mM (inactive)'),
  ('Cc1nnc2sc(-c3ccco3)nn12', '> 4 mM (inactive)'),
  ('CC(=O)OCC(=O)[C@@]1(O)CCC2C3CC[C@@H]4C[C@H](OC(C)=O)CC[C@]4(C)C3C(=O)C[C@@]21C (some centres not stated)', '> 4 mM (inactive)'),
  ('COc1ccc(Cc2nccc3cc(OC)c(OC)cc23)cc1OC', '> 4 mM (inactive)'),
  ('O=C(NC(O)C(=O)c1ccccc1)c1ccco1 (configuration not stated)', '> 4 mM (inactive)'),
  ('COc1ccc2c(c1)OCc1c-2oc2cc(OC)ccc12', '> 4 mM (inactive)'),
  ('CNS(=O)(=O)c1ccc2[nH]c(=O)[nH]c2c1', '> 4 mM (inactive)'),
  ('O=C(Nc1ccccc1)Nc1ccccc1', '> 4 mM (inactive)'),
  ('OC1CSc2ncnn2C1 (configuration not stated)', '> 4 mM (inactive)'),
  ('Cc1n[nH]c(C)c1CC(=O)O', '> 4 mM (inactive)'),
  ('Cc1nn(-c2ccccc2C(=O)O)c(=O)c2ccccc12', '> 4 mM (inactive)'),
  ('CC1(C)N([O-])c2cc([N+](=O)[O-])ccc2[N+]1=O', '> 4 mM (inactive)');
